# ASSAY PROTOCOL: total protein half-life in vivo (active degradation + dilution); higher = more stable protein
# TEST SETTINGS: E. coli NCM3722 delta-clpP; growth: N-lim chemostat; doubling time 6 h
total protein half-life in vivo overview
RESULT TYPE: total protein half-life in vivo (h)

CONSTRUCT SEQUENCE | RESULT NUMBER
MQILLANPRGFCAGVDRAISIVENALAIYGAPIYVRHEVVHNRYVVDSLRERGAIFIEQISEVPDGAILIFSAHGVSQAVRNEAKSRDLTVFDATCPLVTKVHMEVARASRRGEESILIGHAGHPEVEGTMGQYSNPEGGMYLVESPDDVWKLTVKNEEKLSFMTQTTLSVDDTSDVIDALRKRFPKIVGPRKDDICYATTNRQEAVRALAEQAEVVLVVGSKNSSNSNRLAELAQRMGKRAFLIDDAKDIQEEWVKEVKCVGVTAGASAPDILVQNVVARLQQLGGGEAIPLEGREENIVFEVPKELRVDIREVD | 3.68
MSNTPIELKGSSFTLSVVHLHEAEPKVIHQALEDKIAQAPAFLKHAPVVLNVSALEDPVNWSAMHKAVSATGLRVIGVSGCKDAQLKAEIEKMGLPILTEGKEKAPRPAPTPQAPAQNTTPVTKTRLIDTPVRSGQRIYAPQCDLIVTSHVSAGAELIADGNIHVYGMMRGRALAGASGDRETQIFCTNLMAELVSIAGEYWLSDQIPAEFYGKAARLQLVENALTVQPLN | 5
MSSRNNPARVAIVMGSKSDWATMQFAAEIFEILNVPHHVEVVSAHRTPDKLFSFAESAEENGYQVIIAGAGGAAHLPGMIAAKTLVPVLGVPVQSAALSGVDSLYSIVQMPRGIPVGTLAIGKAGAANAALLAAQILATHDKELHQRLNDWRKAQTDEVLENPDPRGAA [P0AG18] | 4.94
